# PROTOCOL_NOTES: Human HepG2 cell viability assay in 384 well format
# Assay type: toxicity, cell-based
# Parameters: dose 125 nL, time 70.5 hour; concentration not given beside the values
# ASSAY_CONTEXT: HepG2 cells, read-out: Inhibition
The following compounds are listed with their measured cytotoxicity at 70.5 h values.
MEASUREMENT_KIND: cytotoxicity at 70.5 h

>>> print(df.to_string())
                                   compound  measured_result
0  Cc1nnc(NC(=O)CN2CCc3c(nc(C4CC4)n3C)C2)s1            6.62%
1    Cc1ccc(S(=O)(=O)NCCCN2CCC(O)CC2)c(F)c1            18.4%
2  CCN(CC)c1ccc(NC(=O)NCC2(C(N)=O)CCOCC2)cn1             1.3%
3   CN(C)c1cccc(CNC(=O)Nc2ccc3[nH]nnc3c2)n1           -2.68%
4  O=C(c1ccc(-n2cccn2)nc1)N1CCCN(c2cccnn2)CC1           -14.8%
5  COc1ccc(C(O)CNC(=O)NCc2c(C)cc(C)[nH]c2=O)cc1 (stereo unspecified)           -5.03%
